system: HepG2 hepatoma cells; assay: Anti-tumor activity in vitro, MTT method, HepG2; assay type: cell-based, human; conditions: Homo sapiens, HepG2, 72 h, read-out: IC50 HepG2 72 h
pIC50: −log10 of the molar value.

compound: COc1ccc(-c2oc3c(CC=C(C)C)c(O)cc(O)c3c(=O)c2OC(=O)CCC(=O)OCCOCc2cn(C3O[C@H](CO)[C@@H](O)[C@H](O)[C@H]3O)nn2)cc1 (stereo partly shown) [Compound 71]
pIC50: < 4.00

----------
test system: HepG2 hepatoma cells; experiment: Anti-tumor activity in vitro, MTT method, HepG2; type: cell-based, human; conditions: HepG2, 48 h, MTT; read-out: IC50 HepG2 48 h
pIC50: −log10 of the molar value.
measurementName: pIC50

compound: COc1ccc(-c2oc3c(CC=C(C)C)c(O)cc(O)c3c(=O)c2OC(=O)CCC(=O)OCCOCc2cn(CCOCCOC3OC(CO)C(O)C(O)C3O)nn2)cc1 (centres unmarked)
studyTarget: HepG2 hepatoma cells
testResult: 4.36
//
compound: COc1ccc(-c2oc3c(CC=C(C)C)c(O)cc(O)c3c(=O)c2OC(=O)CCC(=O)OCCOCc2cn(CCOC3OC(CO)C(O)C(O)C3O)nn2)cc1 (centres unmarked)
studyTarget: HepG2 hepatoma cells
testResult: < 4.00
//
compound: COc1ccc(-c2oc3c(CC=C(C)C)c(O)cc(O)c3c(=O)c2OC(=O)CCC(=O)OCCCOCc2cn(CCOCCOC3OC(CO)C(O)C(O)C3O)nn2)cc1 (centres unmarked)
studyTarget: HepG2 hepatoma cells
testResult: < 4.00
//
compound: COc1ccc(-c2oc3c(CC=C(C)C)c(O)cc(O)c3c(=O)c2OC(=O)CCC(=O)OCc2cn(CCOC3OC(CO)C(O)C(O)C3O)nn2)cc1 (centres unmarked)
studyTarget: HepG2 hepatoma cells
testResult: < 4.00
//
compound: COc1ccc(-c2oc3c(CC=C(C)C)c(O)cc(O)c3c(=O)c2OC(=O)CCC(=O)OCCCCOCc2cn(C3OC(CO)C(O)C(O)C3O)nn2)cc1 (centres unmarked)
studyTarget: HepG2 hepatoma cells
testResult: < 4.00
